Assay: in vivo
Conditions: female, CD-1, mouse, iv, 30 mg/kg, AUC0-24
MEASUREMENT_NAME: AUC(0-t) (µg·h/mL)
# number only, unit µg·h/mL dropped from output

Note down AUC(0-t) recorded for O=C(NN1C(=O)C2C3C=CC(C4CC34)C2C1=O)c1ccc(C(F)(F)F)cc1 (stereo not shown) [ST-246]
709

====

Assay: in vivo
Conditions: male, BALB/c, mouse, iv, 7.6 mg/kg, AUC0-24
MEASUREMENT_NAME: AUC(0-t)

Note down AUC(0-t) recorded for O=C(NN1C(=O)C2C3C=CC(C4CC34)C2C1=O)c1ccc(C(F)(F)F)cc1 (stereo not shown)
170 µg·h/mL

Data credit: patent US9907859B2
